Test: logD7.4 determination (1-octanol/PBS7.4 shake flask)
Assay type: physicochemical
Settings: 1-octanol/PBS7.4, pH 7.4
measuredParameter: logD at 24 h

The reported logD at 24 h of the compound O=C(O)C[C@H](NC(=O)c1cccc(-c2ccc(OC(F)(F)F)cc2)n1)C(=O)O was -2.13

----------
I'd be grateful if you could share measured mSUCNR1 efficacy, % for these entries.
Target: mSUCNR1 (Mus musculus)
Construct: FLAG (own knowledge: pCMV-Tag 2B is an N-terminal FLAG vector); host or cells: HEK-293, transient transfection with Lipofectamine-2000
Sequence (Q99MT6 whole entry): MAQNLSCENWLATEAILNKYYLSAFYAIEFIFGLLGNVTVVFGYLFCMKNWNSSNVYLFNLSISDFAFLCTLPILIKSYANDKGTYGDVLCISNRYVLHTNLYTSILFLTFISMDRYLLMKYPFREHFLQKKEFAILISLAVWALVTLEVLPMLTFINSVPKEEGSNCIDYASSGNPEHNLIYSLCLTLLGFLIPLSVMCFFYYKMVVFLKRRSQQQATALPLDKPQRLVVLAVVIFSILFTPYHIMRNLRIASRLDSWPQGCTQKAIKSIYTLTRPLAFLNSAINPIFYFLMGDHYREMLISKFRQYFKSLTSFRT
Experiment: IP3 turnover assay in mSUCNR1 transfected HEK-293 cells
Format: cell-based
Conditions: efficacy relative to succinate (100%); IP3 turnover, HEK cells (N = 3)
Protocol: Receptor constructs for mSUCNR1 and hSUCNR1 were bought from Origene and cloned into the eukaryotic expression vector pCMV-Tag(2B) (Stratagene). Transient transfection of the HEK-293 cells was done with Lipofectamine-2000 according to manufacturer’s protocol. […] 96-well plates were coated with poly-D-lysine and HEK-293 cells were plated (35.000 cells/well). […] The plate was spun down, and a Packard Top Count NXT counter recorded light emission (scintillation) after an 8 h delay.

| compound | measuredParameter | measurement |
| --- | --- | --- |
| Cc1ccc(-c2ccc(C(=O)N[C@@H](CC(=O)O)C(=O)O)o2)cc1 [Compound 13] | mSUCNR1 efficacy, % | 73.2 ± 2.7% |
| COc1ccccc1-c1ccc(C(=O)N[C@@H](CC(=O)O)C(=O)O)o1 [Compound 16] | mSUCNR1 efficacy, % | 78.1 ± 3.1% |
| O=C(O)C[C@H](NC(=O)c1cccc(-c2ccc(F)cc2)n1)C(=O)O [Compound 27] | mSUCNR1 efficacy, % | 89.3 ± 6.1% |

State recorded mSUCNR1 efficacy, % for all listed compounds.
1. O=C(O)C[C@H](NC(=O)c1ccc(-c2ccc(OC(F)(F)F)cc2)o1)C(=O)O [Compound 20]
2. Cc1ccccc1-c1ccc(C(=O)N[C@@H](CC(=O)O)C(=O)O)o1 [Compound 11]
3. Cc1cccc(-c2ccc(C(=O)N[C@@H](CC(=O)O)C(=O)O)o2)c1 [Compound 12]

Return:
1: 69.7 ± 2.8%; 2: 76.7 ± 3.1%; 3: 81.6 ± 3.0%

State the recorded mSUCNR1 efficacy, % for every item in the following list.
1. O=C(O)C[C@H](NC(=O)c1cccc(-c2ccc(OC(F)(F)F)cc2)c1)C(=O)O [Compound 30]
2. O=C(O)C[C@H](NC(=O)c1cccc(-c2ccc(OCC(F)(F)F)cc2)n1)C(=O)O [Compound 32]

Return:
["45.3 ± 3.4%", "68.1 ± 2.5%"]
